Each recorded value in this set is attributed to ChEMBL document CHEMBL1129681.

We begin with a simple list: items and their reported Ki.
target.under.test: Adrenergic receptor alpha-1 (Rattus norvegicus, UniProt P15823+P23944+P43140)
Sequence (P15823 whole entry): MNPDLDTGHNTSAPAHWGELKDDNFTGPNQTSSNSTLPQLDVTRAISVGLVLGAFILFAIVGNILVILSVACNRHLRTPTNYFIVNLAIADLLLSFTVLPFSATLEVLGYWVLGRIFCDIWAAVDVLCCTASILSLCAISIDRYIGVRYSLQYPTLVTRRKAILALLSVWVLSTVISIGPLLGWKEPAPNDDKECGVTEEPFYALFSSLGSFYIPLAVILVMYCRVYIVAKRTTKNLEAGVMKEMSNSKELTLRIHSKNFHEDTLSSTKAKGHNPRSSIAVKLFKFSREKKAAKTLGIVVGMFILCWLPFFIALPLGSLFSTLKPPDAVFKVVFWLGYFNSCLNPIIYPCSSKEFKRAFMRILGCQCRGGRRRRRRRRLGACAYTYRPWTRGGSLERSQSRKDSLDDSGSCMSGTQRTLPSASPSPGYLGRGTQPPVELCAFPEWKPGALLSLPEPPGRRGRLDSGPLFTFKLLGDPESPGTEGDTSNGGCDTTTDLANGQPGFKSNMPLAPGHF
Sequence (P23944 whole entry): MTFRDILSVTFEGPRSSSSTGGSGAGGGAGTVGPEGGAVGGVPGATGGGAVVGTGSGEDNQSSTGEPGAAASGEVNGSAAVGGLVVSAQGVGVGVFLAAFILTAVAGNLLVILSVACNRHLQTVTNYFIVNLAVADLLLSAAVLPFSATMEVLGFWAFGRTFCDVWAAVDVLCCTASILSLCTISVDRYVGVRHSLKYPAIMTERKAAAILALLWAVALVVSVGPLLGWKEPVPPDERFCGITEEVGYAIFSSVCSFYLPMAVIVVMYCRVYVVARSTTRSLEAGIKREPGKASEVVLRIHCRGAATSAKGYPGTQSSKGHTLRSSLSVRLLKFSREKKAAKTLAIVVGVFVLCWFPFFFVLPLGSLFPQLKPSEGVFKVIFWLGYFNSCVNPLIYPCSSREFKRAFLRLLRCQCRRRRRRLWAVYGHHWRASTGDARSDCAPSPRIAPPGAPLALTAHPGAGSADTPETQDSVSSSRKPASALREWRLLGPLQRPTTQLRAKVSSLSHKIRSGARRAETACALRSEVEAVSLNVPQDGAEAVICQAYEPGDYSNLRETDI
Sequence (P43140 whole entry): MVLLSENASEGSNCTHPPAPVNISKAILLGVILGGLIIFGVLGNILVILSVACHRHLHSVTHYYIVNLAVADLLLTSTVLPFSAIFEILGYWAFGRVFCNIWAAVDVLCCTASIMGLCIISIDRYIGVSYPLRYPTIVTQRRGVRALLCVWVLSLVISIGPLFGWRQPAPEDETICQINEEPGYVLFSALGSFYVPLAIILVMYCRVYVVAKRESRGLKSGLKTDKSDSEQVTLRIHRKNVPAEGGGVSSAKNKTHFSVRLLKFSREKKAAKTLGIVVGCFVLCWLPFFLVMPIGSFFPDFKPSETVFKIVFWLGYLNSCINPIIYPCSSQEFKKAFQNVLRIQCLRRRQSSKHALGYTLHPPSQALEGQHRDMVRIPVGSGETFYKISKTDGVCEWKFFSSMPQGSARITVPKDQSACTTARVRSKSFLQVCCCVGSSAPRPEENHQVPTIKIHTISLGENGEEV
assay.procedure: Binding affinity towards Alpha-1 adrenergic receptor in rat cerebral cortex using [3H]prazosin as radioligand
Type: tissue-based
Use µM as the unit, but write only the number.

COc1cccc(OC)c1OCCNCC1Oc2ccccc2OC1c1ccc(C)cc1 (racemic) : 0.01703
COc1cccc(OC)c1OCCNCC1COc2ccccc2O1 (centres undefined) : 0.00872
COc1cccc(OC)c1OCCNC[C@H]1Oc2ccccc2O[C@@H]1c1ccc(C)cc1 : 0.1212

Please report the measured Ki for `COc1cccc(OC)c1OCCNC[C@@H]1Oc2ccccc2O[C@H]1c1ccc(C)cc1`
0.00997

###

target.under.test: D(2) dopamine receptor (Rattus norvegicus)
Sequence (P61169 whole entry): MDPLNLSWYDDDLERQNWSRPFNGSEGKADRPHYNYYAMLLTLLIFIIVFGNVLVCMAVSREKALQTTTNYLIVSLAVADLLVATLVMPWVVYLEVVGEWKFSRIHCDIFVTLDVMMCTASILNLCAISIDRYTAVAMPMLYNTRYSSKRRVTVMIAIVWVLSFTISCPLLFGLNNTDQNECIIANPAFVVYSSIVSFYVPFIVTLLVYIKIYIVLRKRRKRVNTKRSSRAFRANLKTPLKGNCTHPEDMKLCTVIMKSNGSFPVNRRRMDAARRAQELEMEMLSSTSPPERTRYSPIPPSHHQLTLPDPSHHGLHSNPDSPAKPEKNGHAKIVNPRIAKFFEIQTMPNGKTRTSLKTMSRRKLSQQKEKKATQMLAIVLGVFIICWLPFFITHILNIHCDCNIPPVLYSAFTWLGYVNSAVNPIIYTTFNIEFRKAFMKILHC
assay.procedure: In vitro inhibitory activity against [3H]spiperone binding to Dopamine receptor D2
quantity.measured: Ki (nM)
Use nM as the unit, but write only the number.

Please report the measured Ki for COc1cccc(OC)c1OCCNCC1Oc2ccccc2OC1c1ccc(C)cc1 (racemic)
82.3

###

target.under.test: Adrenergic receptor alpha-2 (Rattus norvegicus, UniProt P22086+P19328+P22909)
Sequence (P22086 whole entry): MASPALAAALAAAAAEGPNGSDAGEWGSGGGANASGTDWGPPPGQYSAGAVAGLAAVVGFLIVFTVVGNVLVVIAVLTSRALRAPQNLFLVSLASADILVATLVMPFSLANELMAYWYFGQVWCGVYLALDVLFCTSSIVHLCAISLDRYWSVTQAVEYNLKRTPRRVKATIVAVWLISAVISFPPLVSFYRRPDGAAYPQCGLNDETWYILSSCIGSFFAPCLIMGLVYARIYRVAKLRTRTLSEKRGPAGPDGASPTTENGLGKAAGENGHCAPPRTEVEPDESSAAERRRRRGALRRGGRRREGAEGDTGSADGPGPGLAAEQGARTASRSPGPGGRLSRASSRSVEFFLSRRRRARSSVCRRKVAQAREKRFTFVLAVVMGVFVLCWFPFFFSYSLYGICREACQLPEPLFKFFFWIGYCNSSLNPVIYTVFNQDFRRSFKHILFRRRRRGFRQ
Sequence (P19328 whole entry): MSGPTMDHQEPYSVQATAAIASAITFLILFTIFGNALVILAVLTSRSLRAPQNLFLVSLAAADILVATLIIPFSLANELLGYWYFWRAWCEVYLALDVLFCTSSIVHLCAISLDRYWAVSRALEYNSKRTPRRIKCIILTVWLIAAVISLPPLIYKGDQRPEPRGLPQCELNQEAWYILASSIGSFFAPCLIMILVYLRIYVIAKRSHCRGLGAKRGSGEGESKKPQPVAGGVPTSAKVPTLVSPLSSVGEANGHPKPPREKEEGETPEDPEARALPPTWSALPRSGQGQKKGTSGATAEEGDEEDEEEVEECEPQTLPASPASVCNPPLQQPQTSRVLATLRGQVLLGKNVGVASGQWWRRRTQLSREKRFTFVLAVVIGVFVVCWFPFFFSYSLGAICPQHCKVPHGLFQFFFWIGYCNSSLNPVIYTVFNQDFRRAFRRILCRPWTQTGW
Sequence (P22909 whole entry): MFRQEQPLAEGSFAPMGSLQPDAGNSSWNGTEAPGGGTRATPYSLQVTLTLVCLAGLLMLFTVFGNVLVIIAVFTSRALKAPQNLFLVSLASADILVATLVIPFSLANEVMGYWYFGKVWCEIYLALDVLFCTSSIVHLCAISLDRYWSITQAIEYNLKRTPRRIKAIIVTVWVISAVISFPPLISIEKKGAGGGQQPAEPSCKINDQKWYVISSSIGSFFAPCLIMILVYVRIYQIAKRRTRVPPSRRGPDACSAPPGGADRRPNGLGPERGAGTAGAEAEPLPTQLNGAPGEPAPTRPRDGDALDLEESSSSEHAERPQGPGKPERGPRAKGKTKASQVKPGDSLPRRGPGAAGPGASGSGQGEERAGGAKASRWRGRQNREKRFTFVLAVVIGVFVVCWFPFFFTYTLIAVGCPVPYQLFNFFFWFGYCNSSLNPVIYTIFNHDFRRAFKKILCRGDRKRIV
assay.procedure: Binding affinity towards Alpha-2 adrenergic receptor in rat cerebral cortex using [3H]rauwolscine as radioligand
Assay type: tissue-based
quantity.measured: Ki (nM)
Use nM as the unit, but write only the number.

Reference set (3 entries):
COc1cccc(OC)c1OCCNC[C@H]1Oc2ccccc2O[C@@H]1c1ccc(C)cc1 : 2142
COC(=O)C1=C(C)NC(C)=C(C(=O)OCCCN2CCC(c3ccccc3)(c3ccccc3)CC2)[C@H]1c1cccc([N+](=O)[O-])c1 : 1611
COc1cccc(OC)c1OCCNCC1COc2ccccc2O1 (centres undefined) : 14.72

Okay, now this compound:
Please report the measured Ki for `COc1cccc(OC)c1OCCNC[C@@H]1Oc2ccccc2O[C@H]1c1ccc(C)cc1`
4293

###

target.under.test: Alpha-1A adrenergic receptor (Bos taurus, UniProt P18130)
Sequence (P18130 whole entry): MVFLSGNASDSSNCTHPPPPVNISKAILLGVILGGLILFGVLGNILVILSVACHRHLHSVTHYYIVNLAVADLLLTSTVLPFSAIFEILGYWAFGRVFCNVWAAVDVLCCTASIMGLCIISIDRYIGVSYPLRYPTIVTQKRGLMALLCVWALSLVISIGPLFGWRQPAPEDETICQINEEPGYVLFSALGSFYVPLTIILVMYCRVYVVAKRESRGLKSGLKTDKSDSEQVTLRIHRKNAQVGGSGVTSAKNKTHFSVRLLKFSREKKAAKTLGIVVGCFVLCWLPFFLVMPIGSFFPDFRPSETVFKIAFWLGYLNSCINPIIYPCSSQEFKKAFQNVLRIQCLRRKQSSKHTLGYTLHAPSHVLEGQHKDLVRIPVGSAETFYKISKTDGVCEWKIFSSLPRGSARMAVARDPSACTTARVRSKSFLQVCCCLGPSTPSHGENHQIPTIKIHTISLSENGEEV
assay.procedure: Binding affinity towards Alpha-1A adrenergic receptor in bovine brain using [3H]-prazosin as radioligand
quantity.measured: pKi
Scale for pKi: -log10 of concentration given in mol/L; no unit attached.

Please report the measured pKi for COc1cccc(OC)c1OCCNCC1Oc2ccccc2OC1c1ccc(C)cc1 (racemic)
9.04

###

target.under.test: UniProtKB P15823
Sequence (P15823 whole entry): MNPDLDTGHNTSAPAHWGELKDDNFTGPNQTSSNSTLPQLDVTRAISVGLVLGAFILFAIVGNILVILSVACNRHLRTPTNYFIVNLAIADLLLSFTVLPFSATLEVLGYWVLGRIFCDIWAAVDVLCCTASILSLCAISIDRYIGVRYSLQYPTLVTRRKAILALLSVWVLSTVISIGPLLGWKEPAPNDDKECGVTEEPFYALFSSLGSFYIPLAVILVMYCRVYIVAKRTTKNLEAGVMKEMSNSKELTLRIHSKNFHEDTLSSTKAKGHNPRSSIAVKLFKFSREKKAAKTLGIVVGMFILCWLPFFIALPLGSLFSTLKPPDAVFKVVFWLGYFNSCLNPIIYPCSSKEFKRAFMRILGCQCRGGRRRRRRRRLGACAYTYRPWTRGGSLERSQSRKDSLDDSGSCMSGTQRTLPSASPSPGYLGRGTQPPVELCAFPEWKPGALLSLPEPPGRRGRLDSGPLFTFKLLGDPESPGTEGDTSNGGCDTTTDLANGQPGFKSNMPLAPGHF
quantity.measured: Ki

Please report the measured Ki for COc1cccc(OC)c1OCCNCC1Oc2ccccc2OC1c1ccc(C)cc1 (racemic)
103 nM
